Please provide measured growth AUC for the entries that follow.
Test system: Bacteroides clarus
Assay: growth AUC relative to DMSO control (median of replicates) (fraction); higher = more growth (less inhibition), active = hit call of the paper
Details: 20 µM; 24 h
Response field accepts a number only; no unit should be typed.

Exam item: Form: Entry = O=[N+]([O-])c1ccc(Oc2c(Cl)cc(Cl)cc2Cl)cc1 | System = Bacteroides clarus | growth AUC = ____
Marked response: 0.907

Exam item: Observed growth AUC on Bacteroides clarus for O=C(Nc1ccc(Cl)cc1C(O)c1ccccc1)c1ccncc1 (stereo not given) , please.
Marked response: 0.946

Exam item: Test system Bacteroides clarus; read-out growth AUC; what value for Cc1cccc(C)c1N(CCSCC(O)C(=O)[O-])C(=O)CO.[Na+] (stereo not given) ?
Marked response: 1.02

Exam item: Query the reported growth AUC for Bacteroides clarus; item: ClC=C(c1ccc(Cl)cc1)c1ccc(Cl)cc1
Marked response: 0.959

Exam item: Bacteroides clarus / growth AUC / CC(C)OC(=O)c1cc(C(=O)OC(C)C)cc([N+](=O)[O-])c1 : value?
Marked response: 0.987

Exam item: Which measured growth AUC belongs to c1ccc2[nH]c(-c3cscn3)nc2c1 , tested on Bacteroides clarus?
Marked response: 1.01

Exam item: Quick check: growth AUC on Bacteroides clarus, item CNc1nc(NC(C)C)nc(SC)n1 ?
Marked response: 0.972

Exam item: Short answer please: growth AUC, Bacteroides clarus, entry Nc1nc2ccccc2[nH]1
Marked response: 1.01

Exam item: Param readout= growth AUC; system= Bacteroides clarus; entry= COC(=O)c1cccc(C)c1S(=O)(=O)NC(=O)Nc1nc(OCC(F)(F)F)nc(N(C)C)n1 ; returns value.
Marked response: 0.995

Exam item: Find the measured growth AUC: item N#Cc1ccc(CC(=NNC(=O)Nc2ccc(OC(F)(F)F)cc2)c2cccc(C(F)(F)F)c2)cc1 (mixture of isomers) , target or system Bacteroides clarus.
Marked response: 1.02

###

Kindly state growth AUC for each of the entries shown.
Tested on: Escherichia coli ED1a
Experiment: growth AUC relative to DMSO control (median of replicates) (fraction); higher = more growth (less inhibition), active = hit call of the paper
Details: 20 µM; 24 h
// response body must contain only the number

Exam item: Field request: growth AUC | item: CCCCCC(C)OC(=O)COc1ccc(Cl)c2cccnc12 (stereo unspecified)
Marked response: 0.933

Exam item: Any idea what its growth AUC is? The compound is CC1=C(C(=O)Nc2ccccc2)CCCO1
Marked response: 0.992

Exam item: I would be grateful if you could share the reported growth AUC for COC(=O)c1c(Cl)c(Cl)c(C(=O)OC)c(Cl)c1Cl .
Marked response: 0.979

Exam item: Recorded growth AUC for COC(=O)C(C)Oc1ccc(Cl)cc1C (stereo unspecified) , please?
Marked response: 0.991

Exam item: Requested field: growth AUC. Item: CCSc1nc(NC(C)C)nc(NC(C)C)n1
Marked response: 1.01

Exam item: Recorded growth AUC of CC1CN(C2CCCCCCCCCCC2)CC(C)O1 (mixture of isomers) , please.
Marked response: 0.994

Exam item: Look up growth AUC for this compound: CC(C)N(C(=O)C(=O)O)c1ccc(F)cc1
Marked response: 1.03

Exam item: Item CCOCN(C(=O)C(=O)O)c1c(C)cccc1CC has what recorded growth AUC?
Marked response: 1

Exam item: Look up growth AUC for this compound: CC(C)(C)C(=O)C(Oc1ccc(Cl)cc1)n1ccnc1 (stereo unspecified)
Marked response: 1.03

Exam item: Which growth AUC is reported for this compound? CCOC(=O)C(C)Oc1ccc(Oc2cnc3cc(Cl)ccc3n2)cc1 (stereo unspecified)
Marked response: 0.997

Exam item: Recorded growth AUC for Cc1ccc(C)c(O)c1 , please?
Marked response: 0.996

Exam item: Suppose we examine the compound CCSC(=O)N(CC)CC ; what growth AUC value has been reported?
Marked response: 1

Exam item: # input compound: CC1COc2ccccc2N1C(=O)C(Cl)Cl (stereo unspecified) ; wanted: its growth AUC
Marked response: 0.985

Exam item: So what does the record say about growth AUC for CCOC(=O)c1nc(C(Cl)(Cl)Cl)n(-c2ccc(Cl)cc2Cl)n1 ?
Marked response: 1

Exam item: Entry CO/N=C(/C(=O)O)c1ccccc1CO/N=C(\C)c1cccc(C(F)(F)F)c1 : reported growth AUC = ?
Marked response: 0.986

Exam item: Look up growth AUC for this compound: COc1ccc(Cl)c(Cl)c1Cl
Marked response: 0.983

Exam item: So what does the record say about growth AUC for NC1=C(Cl)C(=O)c2ccccc2C1=O ?
Marked response: 0.896

Exam item: Which growth AUC is reported for this compound? O=c1cccc2n1CCn1c-2cccc1=O
Marked response: 0.992

Exam item: Given the compound CC(C)N(C(=O)CS(=O)(=O)[O-])c1ccc(F)cc1.[Na+] , what is its reported growth AUC?
Marked response: 0.983

Exam item: growth AUC lookup needed for CCOC(=O)C1=NN(c2ccc(Cl)cc2Cl)C(C)(C(=O)OCC)C1 (stereo unspecified) , thanks.
Marked response: 0.993

Exam item: State the recorded growth AUC for this entry: O=c1oc(-c2ccccc2)nc2ccccc12
Marked response: 0.967

Exam item: Quick one: growth AUC of COCCOc1ccccc1S(=O)(=O)NC(=O)Nc1nc(OC)nc(OC)n1 ?
Marked response: 0.959

Exam item: What value of measured growth AUC is listed for COc1ccccc1C(=O)NS(=O)(=O)c1ccc(C(=O)NC2CC2)cc1 ?
Marked response: 1.03

Exam item: Can you look up the measured growth AUC of Nc1ccc(O)cc1 for me?
Marked response: 1.06

Exam item: For O=C(O)COc1cc(N2C(=O)C3=C(CCCC3)C2=O)c(F)cc1Cl , what is its reported growth AUC?
Marked response: 1.01

Exam item: Which growth AUC value belongs to CC(C)(c1ccc(O)cc1)c1ccc(O)cc1 ?
Marked response: 0.994

Exam item: Consider the compound COC1CCC2(CC1)NC(=O)C(c1cc(C)ccc1C)=C2O (stereo unspecified) and give its measured growth AUC.
Marked response: 1.03

Exam item: Look at this compound and give its reported growth AUC. CCCCOCCOC(=O)COc1nc(Cl)c(Cl)cc1Cl
Marked response: 0.994

Exam item: Given CCCCCCC(C)OC(=O)C(C)Oc1ccc(Cl)cc1C (stereo unspecified) , state its recorded growth AUC.
Marked response: 0.985

Exam item: Would you kindly share the measured growth AUC for COCC(=O)N(c1c(C)cccc1C)C(C)C(=O)O (stereo unspecified) ?
Marked response: 1

Exam item: Data request, read-out growth AUC, for CON(C(=O)c1cc(C)oc1C)C1CCCCC1
Marked response: 1.01

Exam item: I am curious: what growth AUC value has been reported for COC(=O)c1c(Cl)nn(C)c1S(=O)(=O)NC(=O)Nc1nc(OC)cc(OC)n1 ?
Marked response: 1.01

Exam item: # query: growth AUC of entry COC(=O)CSc1cc(N=c2sc(=O)n3n2CCCC3)c(F)cc1Cl
Marked response: 1.02

Exam item: I have this compound here, COC(=O)C(Cl)Cc1ccc(Cl)cc1 (stereo unspecified) , and I need its recorded growth AUC.
Marked response: 0.994

Exam item: Would you kindly share the measured growth AUC for CCOCCOC(=O)C(C)Oc1ccc(Oc2ncc(C(F)(F)F)cc2Cl)cc1 (stereo unspecified) ?
Marked response: 0.996

Exam item: growth AUC lookup needed for C/C=C/C(=O)Oc1c(C(C)CCCCCC)cc([N+](=O)[O-])cc1[N+](=O)[O-] (mixture of isomers) , thanks.
Marked response: 0.976

Exam item: Sample CC(C)(C)C(O)/C(=C\c1ccc(Cl)cc1)n1cncn1 (stereo unspecified) — what was its growth AUC?
Marked response: 0.988

Exam item: Given CC(C)(CO)C(O)(CCc1ccc(Cl)cc1)Cn1cncn1 (stereo unspecified) , state its recorded growth AUC.
Marked response: 1.03

Exam item: State the recorded growth AUC for this entry: CCOCOc1ccc(C(=O)Nc2cccc(Cl)c2Cl)cc1
Marked response: 0.977

Exam item: What does the record list as growth AUC for O=C1NCC[n+]2ccccc21.[Br-] ?
Marked response: 0.966

Exam item: Could you share which growth AUC value was measured for c1ccc2cc3c(ccc4ccccc43)cc2c1 ?
Marked response: 0.999

Exam item: Fill in the blank: the reported growth AUC of CC(CNC(=S)[S-])NC(=S)[S-].[Zn+2] (mixture of isomers) is ____.
Marked response: 0.997

Exam item: // returns reported growth AUC for input O=C(NCc1ncc(C(F)(F)F)cc1Cl)c1c(Cl)cccc1Cl
Marked response: 0.963

Exam item: What growth AUC value was documented for this compound, CCSC(=O)COc1ccc(Cl)cc1C ?
Marked response: 0.973

Exam item: Sample Cc1[nH]oc(=O)c1N=Nc1ccccc1Cl — what was its growth AUC?
Marked response: 0.989

Exam item: Look up growth AUC: CS(=O)(=O)c1ccc(C(=O)C2C(=O)C(O)CC(O)C2=O)c(Cl)c1COCC(F)(F)F (stereo unspecified)
Marked response: 0.988
